Entries and their measured % Rmax, binding to hCD64 follow.
# testedSystem: CD64 (FcgRI) (Homo sapiens, UniProt P12314)
# Sequence (P12314 16-374): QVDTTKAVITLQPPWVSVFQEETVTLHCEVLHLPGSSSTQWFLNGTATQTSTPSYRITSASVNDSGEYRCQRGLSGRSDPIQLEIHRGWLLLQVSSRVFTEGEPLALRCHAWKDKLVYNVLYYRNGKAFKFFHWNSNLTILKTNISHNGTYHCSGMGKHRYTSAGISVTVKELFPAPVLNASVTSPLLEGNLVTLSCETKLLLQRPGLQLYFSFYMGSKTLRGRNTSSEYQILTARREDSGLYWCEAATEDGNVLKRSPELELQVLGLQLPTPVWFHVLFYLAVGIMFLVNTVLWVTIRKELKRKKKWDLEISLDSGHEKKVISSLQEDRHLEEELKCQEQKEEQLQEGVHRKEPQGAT
# testDetails: SPR binding of 1.0 μM antibody to anti-his Fab captured FcgR-his: CD64
Respond numerically; units are % and should not be typed.

Example cases with answers are listed next.
# molecule, % Rmax, binding to hCD64 [%]
measured = [
    ("mAb13-IgG2.5 (protein, left off: another chain or arm of the molecule) constant: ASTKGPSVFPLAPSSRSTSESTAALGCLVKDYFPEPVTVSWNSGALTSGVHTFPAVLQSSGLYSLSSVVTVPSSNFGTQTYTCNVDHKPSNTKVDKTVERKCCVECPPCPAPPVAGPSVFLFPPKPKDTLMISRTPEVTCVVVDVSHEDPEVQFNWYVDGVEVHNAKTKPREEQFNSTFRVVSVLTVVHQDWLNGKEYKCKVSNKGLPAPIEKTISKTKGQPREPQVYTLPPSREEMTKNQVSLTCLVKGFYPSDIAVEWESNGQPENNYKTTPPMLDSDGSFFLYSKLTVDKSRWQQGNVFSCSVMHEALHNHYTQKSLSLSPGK", "−2"),
    ("mAb6-IgG2.3 (protein, left off: another chain or arm of the molecule) constant: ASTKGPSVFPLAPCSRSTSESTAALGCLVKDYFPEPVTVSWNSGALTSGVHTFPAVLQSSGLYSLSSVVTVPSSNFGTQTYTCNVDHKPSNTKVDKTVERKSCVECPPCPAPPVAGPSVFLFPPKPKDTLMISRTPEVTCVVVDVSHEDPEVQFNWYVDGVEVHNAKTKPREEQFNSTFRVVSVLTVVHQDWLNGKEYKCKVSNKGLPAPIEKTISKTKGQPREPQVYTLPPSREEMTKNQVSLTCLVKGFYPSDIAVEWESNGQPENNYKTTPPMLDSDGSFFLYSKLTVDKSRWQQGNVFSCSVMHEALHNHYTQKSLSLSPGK", 3),
    ("mAb7-IgG2.5G1-AY-V27 (protein, left off: another chain or arm of the molecule) constant: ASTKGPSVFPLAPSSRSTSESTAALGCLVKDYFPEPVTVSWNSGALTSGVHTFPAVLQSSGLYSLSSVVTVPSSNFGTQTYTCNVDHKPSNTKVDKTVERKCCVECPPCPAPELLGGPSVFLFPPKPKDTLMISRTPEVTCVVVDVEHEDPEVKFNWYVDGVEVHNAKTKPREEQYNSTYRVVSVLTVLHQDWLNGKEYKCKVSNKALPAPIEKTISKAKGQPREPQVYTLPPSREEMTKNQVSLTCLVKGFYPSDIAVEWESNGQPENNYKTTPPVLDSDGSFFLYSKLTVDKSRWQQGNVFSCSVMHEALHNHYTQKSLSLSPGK", 81),
    ("mAb12-IgG2.5 (protein, left off: another chain or arm of the molecule) constant: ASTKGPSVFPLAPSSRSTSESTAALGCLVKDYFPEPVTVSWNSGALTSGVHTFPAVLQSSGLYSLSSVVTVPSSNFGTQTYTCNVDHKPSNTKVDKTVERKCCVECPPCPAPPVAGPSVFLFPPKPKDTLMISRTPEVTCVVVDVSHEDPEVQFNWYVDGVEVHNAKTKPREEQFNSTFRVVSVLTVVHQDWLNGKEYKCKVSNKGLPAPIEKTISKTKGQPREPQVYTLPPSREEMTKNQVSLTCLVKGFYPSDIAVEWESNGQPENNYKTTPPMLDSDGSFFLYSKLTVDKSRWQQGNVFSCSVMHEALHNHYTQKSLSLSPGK", 1),
]

Now turn to the next molecule.
Task item: Fill in: % Rmax, binding to hCD64 of mAb10-IgG2.3G1-AY-V27 (protein, left off: another chain or arm of the molecule) constant: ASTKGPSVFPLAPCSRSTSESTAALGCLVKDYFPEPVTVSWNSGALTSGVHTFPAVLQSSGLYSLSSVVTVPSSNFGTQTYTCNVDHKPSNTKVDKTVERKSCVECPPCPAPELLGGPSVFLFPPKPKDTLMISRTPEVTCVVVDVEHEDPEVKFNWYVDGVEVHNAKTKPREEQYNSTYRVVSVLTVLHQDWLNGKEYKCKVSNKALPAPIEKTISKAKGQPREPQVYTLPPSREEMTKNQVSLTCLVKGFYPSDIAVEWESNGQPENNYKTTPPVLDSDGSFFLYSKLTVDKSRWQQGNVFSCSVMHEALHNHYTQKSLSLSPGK is ___
Reply: 69
